Biological target: HDM2 (Homo sapiens, UniProt Q00987)
Construct: Thioredoxin (N); made in house; host or cells: E. coli strain BL21(DE3)Rosetta
Sequence (Q00987 17-125): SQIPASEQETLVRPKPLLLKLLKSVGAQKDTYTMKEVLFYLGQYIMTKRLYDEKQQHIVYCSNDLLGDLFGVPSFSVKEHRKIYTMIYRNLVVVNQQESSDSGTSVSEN
Test: HDM2 FRET assay (inhibition of binding of FITC labeled p53-pocket peptide to HDM2)
Details: Table 11; read-out: FRET IC50
From the text: Methods: An HDM2 FRET assay was developed to assess the compounds' inhibitory activity towards binding of p53 protein. […] Protein was purified using Ni-affinity chromatography, followed by size exclusion chromatography using Superdex 75 26/60 column. […] The HDM2 assay buffer contained 1x Phosphate Buffered Saline (Invitrogen, Cat#14190), 0.01% BSA (Jackson ImmunoResearch, Cat# 001-000-162), 0.01% Tween-20. […]
pIC50: −log10 of the molar value.
pIC50 by entry:

Compound: C[C@@H](Nc1nc(-c2noc(=O)[nH]2)nc2nc(N3CCCOCC3)n(C[C@H]3CC[C@H](C)CC3)c12)C1CCC1
pIC50: 7.37
//
Compound: C[C@H]1CC[C@H](Cn2c(N3CCOC[C@H]3c3ccccc3)nc3nc(-c4noc(=O)[nH]4)nc(N4CCCCC4C4CCC4)c32)CC1 (stereo partly drawn) [Example 11.82]
pIC50: 8.19
//
Compound: COC1(C)CN(c2nc3nc(-c4noc(=O)[nH]4)nc(N[C@H](C)C4CCC4)c3n2C[C@H]2CC[C@H](C)CC2)C1
pIC50: 7.68
//
Compound: C[C@@H](Nc1nc(-c2noc(=O)[nH]2)nc2nc(N(C)Cc3cscn3)n(C[C@H]3CC[C@H](C)CC3)c12)C1CCC1
pIC50: 6.88
//
Compound: C[C@@H](Nc1nc(-c2noc(=O)[nH]2)nc2nc(N3CCOC4CCCC43)n(C[C@H]3CC[C@H](C)CC3)c12)C1CCC1 (single isomer, unassigned) [Example 11.148]
pIC50: 7.62
//
Compound: C[C@@H](Nc1nc(C(=O)O)nc2nc(N3CCCCC3C3CCCCC3)n(C[C@H]3CC[C@H](C)CC3)c12)C1CCC1 (stereo partly drawn)
pIC50: 8.81
//
Compound: C[C@@H](Nc1nc(C(=O)O)nc2nc(N3CCOC[C@H]3c3ccccc3)n(C[C@H]3CC[C@H](C)CC3)c12)C1CCC1
pIC50: 9.69
//
Compound: Cc1nn(C)cc1CNc1nc2nc(-c3noc(=O)[nH]3)nc(N[C@H](C)C3CCC3)c2n1C[C@H]1CC[C@H](C)CC1
pIC50: 7.25
//
Compound: COC1CCN(c2nc3nc(-c4noc(=O)[nH]4)nc(N[C@H](C)C4CCC4)c3n2C[C@H]2CC[C@H](C)CC2)C1 (stereo partly drawn)
pIC50: 7.28
//
Compound: CC1CCN(c2nc3nc(-c4noc(=O)[nH]4)nc(N[C@H](C)C4CCC4)c3n2C[C@H]2CC[C@H](C)CC2)C(c2ccccc2)C1 (single isomer, unassigned) [Example 11.69]
pIC50: 7.76
//
Compound: C[C@@H](Nc1nc(-c2noc(=O)[nH]2)nc2nc(N3CCC(F)(F)CC3)n(C[C@H]3CC[C@H](C)CC3)c12)C1CCC1
pIC50: 7.59
//
Compound: C[C@H](Nc1nc2nc(-c3noc(=O)[nH]3)nc(N[C@H](C)C3CCC3)c2n1C[C@H]1CC[C@H](C)CC1)c1cccc(F)c1
pIC50: 8.49
//
Compound: Cc1nonc1CNc1nc2nc(-c3noc(=O)[nH]3)nc(N[C@H](C)C3CCC3)c2n1C[C@H]1CC[C@H](C)CC1
pIC50: 8.20
//
Compound: C[C@@H]1OCCN(c2nc3nc(-c4n[nH]c(=O)o4)nc(N[C@H](C)C4CCC4)c3n2C[C@H]2CC[C@H](C)CC2)[C@@H]1c1ccccc1
pIC50: 7.51
//
Compound: C[C@@H](Nc1nc(-c2noc(=O)[nH]2)nc2nc(N3CCC[C@H]3CF)n(C[C@H]3CC[C@H](C)CC3)c12)C1CCC1
pIC50: 8.63
//
Compound: C[C@@H](Nc1nc(-c2n[nH]c(=O)o2)nc2nc(N3CCOC[C@H]3c3ccccc3)n(C[C@H]3CC[C@H](C)CC3)c12)C1CCC1
pIC50: 8.67
//
Compound: C[C@@H](Nc1nc(-c2noc(=O)[nH]2)nc2nc(N3CCCCC3CF)n(C[C@H]3CC[C@H](C)CC3)c12)C1CCC1 (stereo partly drawn)
pIC50: 8.07
//
Compound: C[C@@H](Nc1nc(-c2noc(=O)[nH]2)nc2nc(N3CCC[C@H]3C(F)(F)F)n(C[C@H]3CC[C@H](C)CC3)c12)C1CCC1
pIC50: 9.19
//
Compound: C[C@@H](Nc1nc(C(=O)O)nc2nc(N3CCCCC3c3cccnc3)n(C[C@H]3CC[C@H](C)CC3)c12)C1CCC1 (stereo partly drawn)
pIC50: 9.05
//
Compound: CCOCC1CCCN1c1nc2nc(-c3noc(=O)[nH]3)nc(N[C@H](C)C3CCC3)c2n1C[C@H]1CC[C@H](C)CC1 (stereo partly drawn)
pIC50: 8.10
//
Compound: CC(C)CN(C)c1nc2nc(C(=O)O)nc(N[C@H](C)C3CCC3)c2n1C[C@H]1CC[C@H](C)CC1
pIC50: 8.78
//
Compound: C[C@@H](Nc1nc(-c2noc(=O)[nH]2)nc2nc(N3CCCCC3c3cccnc3)n(C[C@H]3CC[C@H](C)CC3)c12)C1CCC1 (single isomer, unassigned) [Example 11.50]
pIC50: 7.84
//
Compound: COCC1COCCN1c1nc2nc(-c3noc(=O)[nH]3)nc(N[C@H](C)C3CCC3)c2n1C[C@H]1CC[C@H](C)CC1 (single isomer, unassigned) [Example 11.151]
pIC50: 7.68
//
Compound: C[C@H]1CC[C@H](Cn2c(N3CCOC[C@H]3c3ccccc3)nc3nc(-c4noc(=O)[nH]4)nc(N4CC[C@@H]4C4CCC4)c32)CC1
pIC50: 7.56
